Measured TGI values are reported for all entries that follow.
Tested on: SW-620 colon
protocol_text: NCI tumour cell line growth inhibition, 48 h

Lab entry: SW-620 colon assay, compound COc1ccc(C2C(c3ccccc3)C(=O)N2c2cc(OC)c(OC)c(OC)c2)cc1I (stereo not given) , TGI = > 100 µM

Next:
Entry `CCn1c(-c2nonc2N)nc2c(C#CC(C)(C)O)nc(O[C@@H](CN)c3ccccc3)cc21` ; assay system SW-620 colon; TGI recorded at 3.17 µM

Measured on SW-620 colon, `COC(C/C(=C/CO[Si](C(C)C)(C(C)C)C(C)C)C(=O)Nc1ccccc1I)OC` has a documented TGI of > 100 µM

The compound `CCOC(=O)C1=C(NC(C)(C)C)OCC1=O` , when measured on SW-620 colon, yielded TGI of > 100 µM

The value of TGI recorded for COc1cc2ccc1-c1cc(ccc1O)CC1c3cc4c(cc3CCN1C)Oc1c(OC)cc3c(c1O4)C(C2)N(C)CC3 (stereo not given) when tested on SW-620 colon reads 3.31 µM

I looked up `O=C(c1ccco1)c1c(C(F)(F)F)nc2cc(C(F)(F)F)ccc2[n+]1[O-]` and its TGI for SW-620 colon was > 100 µM

The reported TGI value, SW-620 colon, for `CCCCCC(=O)OCC(=O)O[C@@H]1C[C@]2(C(C)C)O[C@@]1(C)[C@@H]1CC[C@@H](C)[C@H]1[C@@H]2OC(=O)/C=C/c1ccccc1` reads > 67.6 µM

Value (TGI, SW-620 colon) for record `C=CCNC(=O)/C(Cc1cc(Br)c(OC)c(Br)c1O)=N\O` = 26.4 µM

Kindly note: SW-620 colon, `CCCCSCc1nc2nc(Cl)c(Cl)nc2[nH]1` , TGI value reported: > 100 µM
